- Test System: T1, MET928 (cMET protein derived from construct 25-928) (human, UniProt P08581 25-928)
- T1 construct: MET ectodomain, residues 1-24 are the leader; produced in Lec 8 cells; background text says the ectodomain is furin-cleaved into alpha (25-307) and beta chains; biotinylated form used in selections; also called MET928 extracellular domain; Met extracellular domain
- T1 sequence (P08581 25-928): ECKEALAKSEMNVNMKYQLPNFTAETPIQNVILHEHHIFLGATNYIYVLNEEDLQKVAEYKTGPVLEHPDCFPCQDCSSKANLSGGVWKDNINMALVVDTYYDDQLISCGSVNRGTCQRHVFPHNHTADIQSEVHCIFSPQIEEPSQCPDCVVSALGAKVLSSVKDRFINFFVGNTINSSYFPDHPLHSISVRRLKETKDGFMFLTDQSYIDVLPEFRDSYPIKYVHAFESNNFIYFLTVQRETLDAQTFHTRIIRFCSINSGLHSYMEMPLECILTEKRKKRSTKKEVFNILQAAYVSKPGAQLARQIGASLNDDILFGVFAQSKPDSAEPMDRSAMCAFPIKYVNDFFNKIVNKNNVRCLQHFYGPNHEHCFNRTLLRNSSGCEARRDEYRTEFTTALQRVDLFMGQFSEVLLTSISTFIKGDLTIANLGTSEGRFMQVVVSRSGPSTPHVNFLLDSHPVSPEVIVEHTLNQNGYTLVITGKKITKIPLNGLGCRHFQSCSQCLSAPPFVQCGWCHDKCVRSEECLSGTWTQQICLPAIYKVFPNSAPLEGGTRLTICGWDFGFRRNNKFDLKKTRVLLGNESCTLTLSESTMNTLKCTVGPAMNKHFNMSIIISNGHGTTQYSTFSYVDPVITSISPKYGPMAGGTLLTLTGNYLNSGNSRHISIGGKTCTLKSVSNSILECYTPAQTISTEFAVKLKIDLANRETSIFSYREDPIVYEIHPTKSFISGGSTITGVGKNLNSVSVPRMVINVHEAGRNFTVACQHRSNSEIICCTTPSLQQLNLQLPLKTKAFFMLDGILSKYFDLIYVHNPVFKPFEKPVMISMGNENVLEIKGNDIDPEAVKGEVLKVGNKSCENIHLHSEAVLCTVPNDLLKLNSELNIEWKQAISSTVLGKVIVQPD
- Experiment: Biacore SPR, MET-928 on chip, scFv format
# Kd per record follows
Express the result in nM but write the number alone.

# count of solved cases: 3
110_A06 scFv (6xHis/tri-Flag tags) (scFv, 7A2 derivative, only VH CDR3 changed; also called 110_A6; not shown: 6xHis/tri-FLAG tags of pSANG10-3F) scFv: QMQLVQSGAEVKKPGAPVKVSCKVSGYTFTDYYMHWVQQAPGKGLEWMGLVDPEDGETIYAEKFQGRVTITADTSTDTAYMELSSLRSEDTAVYYCATDATTPYWGMQLWGQGTLVTVSSLEGGGGSGGGGSGGGASDIQMTQSPSSLSASVGDRVTITCQASQDISNYLNWYQQKPGRAPKVLIYDASNLETGVPSRFSGSGSGTEFTLTISNLRPDDFATYYCQQGDSFPLTFGGGTKVEIK :: 0.121
111_D06 scFv (6xHis/tri-Flag tags) (scFv, 7A2 derivative, only VH CDR3 changed; not shown: 6xHis/tri-FLAG tags of pSANG10-3F) scFv: QMQLVQSGAEVKKPGAPVKVSCKVSGYTFTDYYMHWVQQAPGKGLEWMGLVDPEDGETIYAEKFQGRVTITADTSTDTAYMELSSLRSEDTAVYYCATDATTPYWGMWQWGQGTLVTVSSLEGGGGSGGGGSGGGASDIQMTQSPSSLSASVGDRVTITCQASQDISNYLNWYQQKPGRAPKVLIYDASNLETGVPSRFSGSGSGTEFTLTISNLRPDDFATYYCQQGDSFPLTFGGGTKVEIK :: 0.183
110_A10 scFv (6xHis/tri-Flag tags) (scFv, 7A2 derivative, only VH CDR3 changed; not shown: 6xHis/tri-FLAG tags of pSANG10-3F) scFv: QMQLVQSGAEVKKPGAPVKVSCKVSGYTFTDYYMHWVQQAPGKGLEWMGLVDPEDGETIYAEKFQGRVTITADTSTDTAYMELSSLRSEDTAVYYCATDATTPYWGMQTWGQGTLVTVSSLEGGGGSGGGGSGGGASDIQMTQSPSSLSASVGDRVTITCQASQDISNYLNWYQQKPGRAPKVLIYDASNLETGVPSRFSGSGSGTEFTLTISNLRPDDFATYYCQQGDSFPLTFGGGTKVEIK :: 0.301

In: For the binder 107_A01 scFv (6xHis/tri-Flag tags) (scFv, 7A2 derivative, only VH CDR3 changed; not shown: 6xHis/tri-FLAG tags of pSANG10-3F) scFv: QMQLVQSGAEVKKPGAPVKVSCKVSGYTFTDYYMHWVQQAPGKGLEWMGLVDPEDGETIYAEKFQGRVTITADTSTDTAYMELSSLRSEDTAVYYCATDATTPYWGMVSWGQGTLVTVSSLEGGGGSGGGGSGGGASDIQMTQSPSSLSASVGDRVTITCQASQDISNYLNWYQQKPGRAPKVLIYDASNLETGVPSRFSGSGSGTEFTLTISNLRPDDFATYYCQQGDSFPLTFGGGTKVEIK , what Kd is on record?
Out: 0.0652
